molecular target: IKKε (Homo sapiens); construct: TBK1 and IKKε were expressed and purified as full length recombinant proteins; assay: TR-FRET enzymatic activity assay, IKKε; details: read-out: IKKϵ IC50; further: full length recombinant IKKε at 0.3 nM
measured metric: IC50 (nM)
Express the result in nM but write the number alone.

q: Input N#Cc1cc(-c2ccnc(NC(=O)[C@@H]3C[C@H]3C(=O)N3CC(O)C3)c2)ccc1OC1CCOCC1 (relative stereo) [Example 45] , output reported IC50.
a: 427

q: Entry N#Cc1cc(-c2ccnc(NC(=O)C3CC3)c2)ncc1O[C@H]1CCN(C(=O)CO)C[C@H]1F [Example 24] needs its IC50 filled in; supply it.
a: 192

q: Assign IC50 to the following record: N#Cc1cc(-c2ccnc(NC(=O)[C@H]3C[C@H](O)C3)c2)ccc1O[C@H]1CCN(C(=O)CO)C[C@H]1F [Example 80]
a: 75.2

q: Quick one: give measured IC50 for N#Cc1cc(-c2cc(NC(=O)C3CC3)ncn2)ccc1O[C@H]1CCNCC1(F)F [Example 25]
a: 297

----------
target: IKKε (Homo sapiens); construct: TBK1 and IKKε were expressed and purified as full length recombinant proteins; test: TR-FRET enzymatic activity assay, IKKε; conditions: read-out: IKKϵ IC50; further: full length recombinant IKKε at 0.3 nM
Dear colleague, classification is by IC50, with ranges listed here: lowest (below 10 nM), middle (10 nM to below 70 nM), highest (70 nM or more)

q: Place this compound in its band: Cn1cc([C@@H]2C[C@H]2C(=O)Nc2cc(-c3ccc(O[C@H]4CCN(C(=O)[C@@H](O)CO)C[C@H]4F)c(C#N)c3)ccn2)cn1 [Example 130]
a: middle

q: Assign a category based on measured IC50 for N#Cc1cc(-c2cc(NC(=O)C3CC3)ncn2)ccc1O[C@@H]1CCN(C(=O)CO)CC1(F)F [Example 110] and give only the class name.
a: highest

q: Into which category would you place N#CCC(=O)N1CC[C@H](Oc2ccc(-c3ccnc(NC(=O)C4CC4)c3)cc2C#N)C(F)(F)C1 [Example 13] ?
a: middle

q: Class (by measured IC50) for N#Cc1cc(-c2ccnc(NC(=O)C3CC3)c2)ccc1O[C@H]1CCN(C(=O)[C@@H]2CCC(=O)N2)CC1(F)F [Example 14]
a: middle

q: Which IC50 category applies to N#Cc1cc(-c2cc(NC(=O)C3CC3)ncn2)ccc1O[C@H]1CCN(C(=O)[C@@H](O)CO)CC1(F)F [Example 22] here?
a: lowest

q: Which class holds N#Cc1cc(-c2ccnc(NC(=O)[C@@H]3C[C@@H]3C(N)=O)c2)ccc1O[C@H]1CCN(C(=O)CO)C[C@H]1F (stereo in doubt) [Example 82] ?
a: highest

q: Band assignment needed for N#Cc1cc(-c2cc(NC(=O)C3CC3)ncn2)ccc1O[C@H]1CCN(C(=O)[C@@H](O)CO)C[C@H]1F [Example 21] please.
a: middle

q: Please indicate the class for N#Cc1cc(-c2ccnc(NC(=O)[C@@H]3C[C@H]3c3cncnc3)c2)ccc1O[C@H]1CCN(C(=O)CO)C[C@H]1F [Example 149] based on its IC50.
a: highest

q: # classify by IC50 band: CC(O)[C@@H]1C[C@H]1C(=O)Nc1cc(-c2ccc(OC3CCOCC3)c(C#N)c2)ccn1 (some centres unmarked) [Example 39]
a: highest

q: Which class is correct for the following compound? N#Cc1cc(-c2cc(NC(=O)C3CC3)ncn2)ccc1O[C@H]1CCN(C(=O)c2nnc[nH]2)CC1(F)F [Example 32]
a: lowest

q: Would you mind sorting Cn1ccc([C@H]2C[C@@H]2C(=O)Nc2cc(-c3ccc(O[C@H]4CCN(C(=O)CO)CC4(F)F)c(C#N)c3)ccn2)n1 [Example 103] into the appropriate category?
a: middle

q: Category of N#Cc1cc(-c2ccnc(NC(=O)[C@@H]3C[C@H]3c3cccnc3)c2)ccc1O[C@H]1CCN(C(=O)CO)CC1(F)F [Example 134] , please.
a: middle

q: State the class of the compound shown: CN(C)C[C@@H]1C[C@H]1C(=O)Nc1cc(-c2ccc(OC3CCOCC3)c(C#N)c2)ccn1 (relative stereo) [Example 41]
a: highest

----------
For each record, write down the corresponding pIC50.
Target: IKKε (Homo sapiens)
Construct: TBK1 and IKKε were expressed and purified as full length recombinant proteins
Sequence (Q14164 1-716): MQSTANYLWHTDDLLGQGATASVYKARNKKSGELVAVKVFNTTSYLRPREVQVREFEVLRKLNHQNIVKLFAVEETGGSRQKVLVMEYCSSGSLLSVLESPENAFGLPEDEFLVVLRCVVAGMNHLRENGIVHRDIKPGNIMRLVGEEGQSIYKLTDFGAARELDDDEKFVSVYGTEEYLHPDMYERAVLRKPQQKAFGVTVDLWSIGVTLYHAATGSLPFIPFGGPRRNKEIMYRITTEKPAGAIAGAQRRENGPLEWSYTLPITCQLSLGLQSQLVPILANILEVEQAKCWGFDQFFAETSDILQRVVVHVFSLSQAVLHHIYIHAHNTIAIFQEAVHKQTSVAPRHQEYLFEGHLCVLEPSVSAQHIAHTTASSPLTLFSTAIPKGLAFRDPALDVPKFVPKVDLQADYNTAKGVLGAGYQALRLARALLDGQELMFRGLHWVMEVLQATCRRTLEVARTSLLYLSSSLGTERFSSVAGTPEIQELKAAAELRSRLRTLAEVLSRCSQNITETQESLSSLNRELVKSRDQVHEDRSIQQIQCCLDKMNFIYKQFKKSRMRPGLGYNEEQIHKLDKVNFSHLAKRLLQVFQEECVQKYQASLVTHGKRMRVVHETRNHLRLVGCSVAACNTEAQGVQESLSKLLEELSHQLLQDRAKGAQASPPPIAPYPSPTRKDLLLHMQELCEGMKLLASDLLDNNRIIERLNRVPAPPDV
Test: TR-FRET enzymatic activity assay, IKKε; further: full length recombinant IKKε at 0.3 nM
Conditions: read-out: IKKϵ IC50
Give only the number. pIC50 is defined as minus log10 of concentration in molar units.

q: Look up pIC50 of N#Cc1cc(-c2ccnc(NC(=O)[C@@H]3C[C@@H]3c3ccccc3)c2)ccc1O[C@H]1CCN(C(=O)CO)C[C@H]1F (stereo in doubt) [Example 71] and report it.
a: 6.93

q: // Input: N#Cc1cc(-c2cc(NC(=O)[C@@H]3C[C@H]3c3cccnc3)ncn2)ccc1O[C@H]1CCN(C(=O)CO)CC1(F)F [Example 129] . Output its pIC50 only.
a: 7.49

q: Output pIC50 of N#CCC(=O)N1CC[C@H](Oc2ccc(-c3ccnc(NC(=O)C4CC4)c3)cc2C#N)[C@H](F)C1 [Example 12]
a: 6.92

q: Consider the compound N#Cc1cc(-c2cc(NC(=O)C3CC3)ncn2)ccc1O[C@H]1CCN(C(=O)CCO)CC1(F)F [Example 154] . State its measured pIC50.
a: 6.41

q: Please report the measured pIC50 for N#Cc1cc(-c2ccnc(NC(=O)C3CC3)c2)ccc1O[C@H]1CCN(C(=O)CO)CC1(F)F [Example 10]
a: 8.13

q: Note pIC50 for the compound shown: N#Cc1cc(-c2ccnc(NC(=O)C3CC3(F)F)c2)ccc1O[C@H]1CCN(C(=O)CO)C[C@H]1F (stereo partly shown) [Example 58]
a: 7.52

q: Please list pIC50 recorded for the compound Cc1n[nH]c(C(=O)N2CC[C@H](Oc3ccc(-c4cc(NC(=O)C5CC5)ncn4)cc3C#N)[C@H](F)C2)n1 [Example 30]
a: 8.13

----------
For each record, write down the corresponding pIC50.
molecular target: TBK1 (Homo sapiens); construct: TBK1 and IKKε were expressed and purified as full length recombinant proteins; assay: TR-FRET enzymatic activity assay, TBK1; further: full length recombinant TBK1 at 2.5 nM
Sequence (Q9UHD2 whole entry): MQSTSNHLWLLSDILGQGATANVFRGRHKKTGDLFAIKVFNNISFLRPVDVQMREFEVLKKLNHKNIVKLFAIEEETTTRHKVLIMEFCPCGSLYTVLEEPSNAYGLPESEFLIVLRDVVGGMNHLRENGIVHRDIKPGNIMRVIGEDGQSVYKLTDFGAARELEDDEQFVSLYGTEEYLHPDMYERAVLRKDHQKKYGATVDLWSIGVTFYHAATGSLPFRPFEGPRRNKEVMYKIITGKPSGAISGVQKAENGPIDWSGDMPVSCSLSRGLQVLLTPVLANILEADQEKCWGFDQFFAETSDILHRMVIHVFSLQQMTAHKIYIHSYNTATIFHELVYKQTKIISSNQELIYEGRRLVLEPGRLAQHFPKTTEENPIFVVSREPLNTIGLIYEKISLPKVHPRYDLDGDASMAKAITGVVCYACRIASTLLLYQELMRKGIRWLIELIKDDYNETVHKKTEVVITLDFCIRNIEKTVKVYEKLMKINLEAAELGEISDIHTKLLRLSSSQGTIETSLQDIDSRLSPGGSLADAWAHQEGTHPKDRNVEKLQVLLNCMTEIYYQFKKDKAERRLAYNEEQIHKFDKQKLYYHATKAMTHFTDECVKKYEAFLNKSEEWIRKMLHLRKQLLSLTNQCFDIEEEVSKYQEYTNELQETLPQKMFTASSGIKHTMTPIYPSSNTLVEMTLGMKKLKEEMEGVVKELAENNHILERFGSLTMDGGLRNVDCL
Note on pIC50: it is the negative log10 of concentration, concentration in mol/L.

q: Output measured pIC50 for this item: CCOC(=O)[C@@H]1C[C@H]1C(=O)Nc1cc(-c2ccc(OC3CCOCC3)c(C#N)c2)ccn1 (relative stereo) [Example 50]
a: 6.64

q: Quickly give me recorded pIC50 for N#Cc1cc(-c2ccnc(NC(=O)[C@@H]3C[C@H]3c3cccnc3)c2)ccc1O[C@H]1CCN(C(=O)CO)C[C@H]1F [Example 135]
a: 7.67

q: Quick one: give measured pIC50 for Cn1cc(C2C[C@H]2C(=O)Nc2cc(-c3ccc(O[C@H]4CCN(C(=O)CO)CC4(F)F)c(C#N)c3)ccn2)cn1 (stereo in doubt) [Example 89]
a: 8.35

q: Find the measured pIC50 of N#Cc1cc(-c2cc(NC(=O)C3CC3)ncn2)ccc1O[C@H]1CCN(C(=O)CCO)CC1(F)F [Example 154] and report it.
a: 7.38

q: Name the recorded pIC50 of the compound listed here: N#Cc1cc(-c2ccnc(NC(=O)[C@H]3C[C@@H]3c3cccnc3)c2)ccc1O[C@H]1CCN(C(=O)CO)CC1(F)F [Example 142]
a: 8.24

q: Please report the measured pIC50 for N#Cc1cc(-c2ccnc(NC(=O)[C@@H]3C[C@H]3c3cccnc3)c2)ccc1O[C@H]1CCN(C(=O)[C@@H](O)CO)CC1(F)F [Example 139]
a: 7.80
